Provide the reported Kd of each item.
- Test System: GDP-bound KRAS wild-type protein (Homo sapiens, UniProt P01116)
- Sequence (P01116 whole entry): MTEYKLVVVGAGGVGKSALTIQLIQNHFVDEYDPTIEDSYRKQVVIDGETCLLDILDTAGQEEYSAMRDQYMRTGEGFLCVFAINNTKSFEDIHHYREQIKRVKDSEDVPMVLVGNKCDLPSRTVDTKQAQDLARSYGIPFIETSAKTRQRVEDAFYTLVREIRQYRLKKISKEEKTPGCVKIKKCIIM
- Assay Comment: Binding to KRAS by surface plasmon resonance (SPR), Single Cycle Kinetics
- Protocol Conditions: SPR Single Cycle Kinetics, GDP-bound KRAS wild-type protein, 1:1 binding model; read-out: KRAS KD
Where a SMILES comes first, the peptide text is derived from it. Bridges are numbered along the chain shown (N, C = ends). [ ]: non-standard residue; d: D form. The star is where a group is joined. hPhe(3-Cl-4-CF3) = N[C@@H](CCc1ccc(C(F)(F)F)c(Cl)c1)C(=O)O; NPrPhe(4-CF3) = CCCN[C@@H](Cc1ccc(C(F)(F)F)cc1)C(=O)O; NMeGly(cPent) = CN[C@H](C(=O)O)C1CCCC1; NMeD = CN[C@@H](CC(=O)O)C(=O)O; NMeL = CN[C@@H](CC(C)C)C(=O)O; Ac5c = NC1(C(=O)O)CCCC1; X24 = CC1(C)CCN(*)C1; Sar = CNCC(=O)O
Supply the numeric figure in nM, leaving out any unit text.

Value lookup for Kd; key = `CC[C@H](C)[C@@H]1NC(=O)[C@H](CC(C)C)N(C)C(=O)C[C@@H](C(=O)N(C)C)N(C)C(=O)[C@H](C2CCCC2)N(C)C(=O)C2(CCCC2)NC(=O)[C@@H]2CCCN2C(=O)[C@H](CCc2ccc(C(F)(F)F)c(Cl)c2)NC(=O)CN(C)C(=O)[C@H](Cc2ccc(C(F)(F)F)cc2)N2CC/C=C\COC[C@@H](C2=O)N(C)C(=O)CN(C)C1=O`
11

Value lookup for Kd; key = CCCN1C(=O)CN(C)C(=O)CN(C)C(=O)[C@H]([C@@H](C)CC)NC(=O)[C@H](CC(C)C)N(C)C(=O)C[C@@H](C(=O)N2CCC(C)(C)C2)N(C)C(=O)[C@H](C2CCCC2)N(C)C(=O)C2(CCCC2)NC(=O)[C@@H]2CCCN2C(=O)[C@H](CCc2ccc(C(F)(F)F)c(Cl)c2)NC(=O)CN(C)C(=O)[C@@H]1Cc1ccc(C(F)(F)F)cc1 [PP0177] ([NMeL]I[Sar][Sar][NPrPhe(4-CF3)][Sar][hPhe(3-Cl-4-CF3)]P[Ac5c][NMeGly(cPent)][NMeD]-X24; lactam N-11)
0.55

Value lookup for Kd; key = `CCC[C@H]1C(=O)N[C@@H]([C@@H](C)CC)C(=O)N(C)CC(=O)N(C)[C@H]2C/C=C\CCN(C2=O)[C@@H](Cc2ccc(C(F)(F)F)cc2)C(=O)N(C)CC(=O)N[C@@H](CCc2ccc(C(F)(F)F)c(Cl)c2)C(=O)N2CCCC[C@H]2C(=O)NC2(CC(C)(C)C2)C(=O)N(C)[C@@H](C(CC)CC)C(=O)N(C)[C@H](C(=O)N(C)C)CC(=O)N1C`
4.8

Data provenance: patent US20240158446A1
